# tgt: ATPase family AAA domain-containing protein 2B (Homo sapiens, UniProt Q9ULI0)
# Sequence (Q9ULI0 whole entry, the tested form may be a part): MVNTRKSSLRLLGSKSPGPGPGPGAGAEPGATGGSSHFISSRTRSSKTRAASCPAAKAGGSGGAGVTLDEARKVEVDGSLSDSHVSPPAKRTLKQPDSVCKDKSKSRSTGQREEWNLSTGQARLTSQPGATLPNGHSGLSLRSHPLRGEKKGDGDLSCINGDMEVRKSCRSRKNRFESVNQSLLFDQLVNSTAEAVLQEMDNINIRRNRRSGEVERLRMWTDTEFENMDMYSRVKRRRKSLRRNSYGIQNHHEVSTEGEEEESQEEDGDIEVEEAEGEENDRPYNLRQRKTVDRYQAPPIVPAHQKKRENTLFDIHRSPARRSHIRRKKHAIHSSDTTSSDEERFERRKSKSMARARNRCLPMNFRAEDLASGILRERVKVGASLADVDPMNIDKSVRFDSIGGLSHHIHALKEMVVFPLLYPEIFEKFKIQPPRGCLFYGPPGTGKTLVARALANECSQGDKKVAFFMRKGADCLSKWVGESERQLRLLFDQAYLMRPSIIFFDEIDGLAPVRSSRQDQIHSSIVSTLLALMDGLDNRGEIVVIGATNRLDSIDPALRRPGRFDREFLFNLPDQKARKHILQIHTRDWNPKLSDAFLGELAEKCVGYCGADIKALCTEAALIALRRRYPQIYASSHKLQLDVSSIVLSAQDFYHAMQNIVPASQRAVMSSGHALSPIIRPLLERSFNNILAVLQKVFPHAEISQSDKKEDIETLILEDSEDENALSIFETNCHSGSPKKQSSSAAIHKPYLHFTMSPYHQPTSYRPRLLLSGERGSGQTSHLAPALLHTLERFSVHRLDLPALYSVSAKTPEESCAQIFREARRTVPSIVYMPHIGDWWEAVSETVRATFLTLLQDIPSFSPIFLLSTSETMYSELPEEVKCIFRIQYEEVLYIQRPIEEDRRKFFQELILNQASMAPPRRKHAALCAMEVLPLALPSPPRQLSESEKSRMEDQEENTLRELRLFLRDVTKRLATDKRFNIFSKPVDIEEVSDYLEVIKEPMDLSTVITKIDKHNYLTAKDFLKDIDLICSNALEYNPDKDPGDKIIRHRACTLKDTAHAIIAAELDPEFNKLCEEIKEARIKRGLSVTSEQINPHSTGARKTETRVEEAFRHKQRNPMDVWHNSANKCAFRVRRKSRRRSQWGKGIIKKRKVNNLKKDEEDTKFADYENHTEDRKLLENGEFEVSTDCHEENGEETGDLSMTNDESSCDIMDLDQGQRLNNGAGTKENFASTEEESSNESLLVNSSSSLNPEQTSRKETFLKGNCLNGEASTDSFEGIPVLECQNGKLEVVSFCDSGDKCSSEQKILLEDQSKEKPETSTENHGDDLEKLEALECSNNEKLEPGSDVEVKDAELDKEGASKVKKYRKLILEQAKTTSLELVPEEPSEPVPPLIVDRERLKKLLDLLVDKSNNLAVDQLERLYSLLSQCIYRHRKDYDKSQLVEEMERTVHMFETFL
# test_method_notes: Binding affinity to human partial length ATAD2B (Q955 to R1082 residues) expressed in bacterial expression system by BROMOscan assay
pKd: −log10 of the molar value.
observable: pKd

> print(dat)
                                  structure  observable  value.measured
1  CCS(=O)(=O)Nc1cc(-c2cn(C)c3c(=O)[nH]ccc23)cc2c1ccn2C(C)(c1ccccn1)c1ccccn1         pKd          < 5.00

====

# tgt: UniProt:P33261
# Sequence (P33261 whole entry): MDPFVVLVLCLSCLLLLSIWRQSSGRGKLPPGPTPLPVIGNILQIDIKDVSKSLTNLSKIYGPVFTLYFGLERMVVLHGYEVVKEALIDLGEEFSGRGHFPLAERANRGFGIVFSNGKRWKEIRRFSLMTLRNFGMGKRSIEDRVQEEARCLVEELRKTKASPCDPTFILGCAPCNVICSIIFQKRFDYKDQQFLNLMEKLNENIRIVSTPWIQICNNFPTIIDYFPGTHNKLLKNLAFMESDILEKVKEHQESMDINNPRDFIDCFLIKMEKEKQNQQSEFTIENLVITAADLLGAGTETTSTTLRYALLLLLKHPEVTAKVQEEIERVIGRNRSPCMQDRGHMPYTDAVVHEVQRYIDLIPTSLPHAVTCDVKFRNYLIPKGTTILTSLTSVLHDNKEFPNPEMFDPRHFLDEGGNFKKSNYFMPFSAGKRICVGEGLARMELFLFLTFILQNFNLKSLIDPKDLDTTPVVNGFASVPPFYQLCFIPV
# test_method_notes: Inhibition of human CYP2C19 at 10 uM
# Type: ADME
observable: inhibition at 10 µM (%)

> print(dat)
                                  structure  unit.name  value.measured
1  CCS(=O)(=O)Nc1cc(-c2cn(C)c3c(=O)[nH]ccc23)cc2c1ccn2C(C)(c1ccccn1)c1ccccn1.Cl          %            31.8
